Reference source: the supplement of paper PMC10567573

Could you please report measured protein stability index for the items listed next?
B1: BTBD1 (parent)
chain: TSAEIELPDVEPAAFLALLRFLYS

Variants of: B1
Experiment: protein stability index of a GFP-peptide fusion (GPS, HEK-293T) (PSI 1-6); higher = more stable;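 note: lentivirally expressed fusions sorted by FACS into six bins by GFP to DsRed ratio, PSI derived from sequencing read proportions per bin multiplied by bin number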
Details: c terminus: a fixed tail appended
Lab note: jot down the number only; don't add units.

*Q* Return the recorded protein stability index value; entry: S2Q
*A* 2.24

*Q* Return the recorded protein stability index value; entry: T1W
*A* 1.96

*Q* Return the recorded protein stability index value; entry: T1Y
*A* 1.97

*Q* Return the recorded protein stability index value; entry: A14Q
*A* 1.77

*Q* Return the recorded protein stability index value; entry: I5Y
*A* 1.95

*Q* Return the recorded protein stability index value; entry: A3K
*A* 2.17

*Q* Return the recorded protein stability index value; entry: S24R
*A* 2.44

*Q* Return the recorded protein stability index value; entry: Y23K
*A* 2.1

*Q* Return the recorded protein stability index value; entry: P12W
*A* 1.8

*Q* Return the recorded protein stability index value; entry: L7Y
*A* 2.05

*Q* Return the recorded protein stability index value; entry: E11D
*A* 1.69
